folding stability dG unfold: recorded values
# measurementDescription: folding stability dG unfold (combined trypsin and chymotrypsin); higher = more stable
endpointLabel: folding stability dG unfold (kcal/mol)

SAGWDLKIEPEPNPDNGMRMINIEYEDPDGDGPYTVSIMYHNGKIKAVEVQDPNTGEPELTPEALEELFSAG [r5_872_TrROS]	-0.305
SAGGSAGGSAGEKVKLVITTTVTLPALDPEGGEFVGPVTFTETIVLDMNPEDAARLLAAASAGGSAGGSAGG [r17_283_TrMRF]	2.23
SAGGELKLLFNFPSKEEAEEFAEALKKAYPNFEVEVEYDPETGLFYLTLKPKEIPPLSPEELEKLLESAGGS [r16_674_TrMRF]	4.7
SAGGKIKIRNPKTGLIVEVLEYNPETGKFKVKVTFPDGSVEEKEFPGSLEDLIEWLESEGFPFEVEGSAGGS [r16_748_TrMRF]	3.37
SAGGSAGGSAGGSDPSATLRVTLTPRTTRTRLVTDEDGVERTYTFGGDGTLSVSLLPSGSAGGSAGGSAGGS [r4_162_TrMRF]	0.258
SAGGSDGEMITYPFLLPDGYLITIWISPENGQITEIEIMPIPAPPPEPPVEPKYGRDDGNGNKKYDSAGGSA [r2_78_TrROS]	1.52

* * *

# measurementDescription: folding stability dG unfold (combined trypsin and chymotrypsin); higher = more stable
endpointLabel: folding stability dG unfold (kcal/mol)

SAGGSAGGSENAALENPFANRPPIPPVRAVLYDPDGTPRVLEGRSLEEIRRYAEERGVVVDISSAGGSAGGS [r12_244_TrMRF]	-0.165
SAGGSAGGNPDLVITFPDGVKITVHPDGTITITRFIPGRDVPVGTRTITVPAPDGIPLEELLKYSAGGSAGG [r6_572_TrMRF]	1.13
SAGGNNIMIWIRKNPKEGKRKIMIYTDSPSWVEMIAEEAKDPGFKIVGPMTVEEAAQKMGFPPDLFISAGGS [r16_438_TrROS]	1.27

* * *

# measurementDescription: folding stability dG unfold (combined trypsin and chymotrypsin); higher = more stable
folding stability dG unfold: recorded values
endpointLabel: folding stability dG unfold

SAGGGPEVVETVETPATETEVSRLPNGELLVTTTTQVTTFVRVGDELRRERVETVTTTEIVSPEELGSAGGS [r16_109_JUSTAS]	< -1 kcal/mol
SAGGSAGGSAGGSMAIPVYLKIENKVLTSLDELKEAVESGKPIEIERIEAFDLSPDEEVSAGGSAGGSAGGS [r4_479_TrMRF]	< -1 kcal/mol
SAGGSAGGSAGGKRHRIDNIEPFNNDGEKLYRIRMPGGKEQRFPVGEEFTPNGAEIEPLPSAGGSAGGSAGG [r7_931_TrROS]	< -1 kcal/mol

* * *

# measurementDescription: folding stability dG unfold from chymotrypsin proteolysis; higher = more stable
endpointLabel: folding stability dG unfold (kcal/mol)

SAGGSAGGSAGIKIEWEPNPNGSWRMKIEIPNPNGNPKKIEVWANPNGKIREDEAKEILNSAGGSAGGSAGG [r11_759_TrROS]	1.18
SAGGSAGGSAMEELVKEAIKEGKPGEVVLIRNEDGSVFALTVKDGKIEIKKLEEVKEVVEESAGGSAGGSAG [r3_244_TrROS_Hall]	1.06
SAGGSAGGSAGFYKAKLKILKTKVYSNEKGTKKKTYKPVLILEELIPPKIPKELWEKLNKSAGGSAGGSAGG [r11_318_TrMRF]	0.528
SAGGSAGGSNLEEFLAKLPPDVEVVVDPETGTVLVRFPKTGTVAVFRVDAAEGKVELVEVKPVSAGGSAGGS [r12_82_TrMRF]	3.72
SAGGSAGGSAGGPITSIDTSGPVITVTATTPGGSVTMDVPPDLTLEEVEALLKANPELLNSAGGSAGGSAGG [r7_373_JUSTAS]	-0.265
SAGGSAGGSASTTVTYVEIKVTNPNPPGTPVAEYLIPLSEITEEMIEKLEKEGGLKVEVTVVLSAGGSAGGS [r12_398_JUSTAS]	1.44
SMVEKLPDGTTVIKGELPLDVSIEDVLAKLPDLKLASRTSETDPATGKRYYTFIVKPDGTVDVTSEPKLLSA [r9_238_JUSTAS]	1.21
SAGPNKPYKIRVSIMHPGKWREHEIDIDPGEDIEEALDEIMDKLPPNWMIMIHYANGEMIMIPIPPEMISAG [r5_77_TrROS]	2.18
SAGGSANNPKPRIIEIPIQFDWPPGDPQQMRNLAETIADEFSDPGYRVEIDEFTPDYFMFNIKIEWSAGGSA [r15_563_TrROS]	2.94
SAGGSAGGSAGGMKVIKLPGLTVEIEPGYSPSEPVKITITDPKTGKVTEYEIKIPPEELPSAGGSAGGSAGG [r7_834_JUSTAS]	1.26
SAGGGMQAVSPVKTETKTSPDGTTTTTTTTRYPDGTVVVPVTETSPTGGAKKVATTTVSLGPPSPALASAGG [r13_494_JUSTAS]	1.07
SAGGSAGGSAGKKPPVYRLVVENEDGEKYEFEFKSLEDLKAALESEEVRKKIKKVKIEKVSAGGSAGGSAGG [r11_1047_TrROS_Hall]	3.02
KYELVATLSRPNPETGTVVNVSVYRFEDGSYRVLVDVSTFYRTPDGSLRTSSSRAVFLVPEDVDPRELVESS [r1_243_TrMRF]	3.57
SAGIKPGEKIEKVEIVKVEVKKNKDGSKTVTVTIKLKDGKTITIKPGETIEIKIENKKEGEKITLKVKSAGG [r19_199_TrROS_Hall]	1.91
SAGGSAGGMARVLRVEPAEGDDTFYVEVEFYDPATGEVTLGRFRIPADRPDLATNIPADSWVVLSAGGSAGG [r6_978_TrMRF]	1.56
SAGGIEEAIKEGKTVIIRVKVIDKETGKEYERTIEVPANEEISLEELLKALLPPGYEVEIEVVELEPSAGGS [r8_127_TrROS_Hall]	3.03

* * *

# measurementDescription: folding stability dG unfold (combined trypsin and chymotrypsin); higher = more stable
endpointLabel: folding stability dG unfold (kcal/mol)

SAGGSAGGGIEPGKKVKAKATLILPGGKPIPFTATFTPDYVTLDLGKGSLTVPVEFIAHLEIEDSAGGSAGG [r6_132_TrMRF]	1.11
SAGGSAGGSMKVVVTAKLPGGEVLQKTIPVDESVLKKMSKEEVIELLKKEGLPENVEIKFEPKSAGGSAGGS [r12_742_JUSTAS]	1.81
SAGGSAGGSAGGAELLPSDVLKFTLTIQPDLKGSPPIIVEVTISVPPEVLEKPEIEVSLSAGGSAGGSAGGS [r10_672_JUSTAS]	2.7
SAMSVKTYSSTSVDPKTGKTYTTTTTVTPKPEPPWLVTTTTYLVDPATGTTTLLSTTTTTLDPNDPTLLSAG [r14_939_JUSTAS]	2.45
SAGGKKKLVEITIKVPPGMTVEELIAEIAKKLPPGAKIVKVEYDKETKEIKIIVYDEKTKKKIEIKFSAGGS [r16_250_TrROS_Hall]	1.64
GMMPEVKEYEVVVEVSLSDPSFASMTPEELAERAVAEVAAKPDFDPVEVEILSVKELPDGTYVVKVRITVRS [r1_484_JUSTAS]	3.91
SAGGSAGGSAGLEALKKALEALPPGEERELEIEVEVDGKLYRFRIRVEKTEDGEYKATIELESAGGSAGGSA [r18_493_TrROS_Hall]	4.76
SAGGSKMPPGYKMIPIEIPFRTPEDLEQAINFAEELAREGFTIIDIDVEIPEGDNYRVEFHIMLPYSAGGSA [r2_350_TrROS]	2.31
SAGGSAGGSAGMKPGETYLVRIRVKVDGKWYEKEVKFKSLEELKKAGIENIEEIEIRKLPSAGGSAGGSAGG [r17_290_TrROS_Hall]	2.47
SAGNPDYIPIPFRVWIMRRVPPGMSKEQAKKNPDMYVMVPIPVKFYIDPDTGRIRVENPDGKTIEFPLPSAG [r5_701_TrROS]	2.68
SAGGKVTLIEVEFEGGNPTISLTVTNADGSVEAVFVSPSPTDVLYATATLTVGGHPVVVVARASKDESAGGS [r16_672_TrMRF]	1.8
SAGGSAGGSAGGELNIDDIKIDWFPADDMDDRYIFTEKIRGPNGKPTMEVTFWLPAGDLSAGGSAGGSAGGS [r10_155_TrROS]	0.00836
SAGGSAGGSAGGPWYVRIEYTPPNGNKETFIIPSPEEIDEWAEPFGVPVKIEPIPPGDPISAGGSAGGSAGG [r7_456_TrROS]	0.736
SAGGSAGGSELITLTEKASLAVGELNLPSPEELAKKKYPDVKPKNITVSTKPGEGLVTVTVDGKSAGGSAGG [r6_81_JUSTAS]	-0.222

* * *

# measurementDescription: folding stability dG unfold from trypsin proteolysis; higher = more stable
endpointLabel: folding stability dG unfold

SAGGSAGGSAGSKTPSVLVIEVDANTSIEKILELYKKNYPVGEIRVFTRPDGRKIAVITGSAGGSAGGSAGG [r11_97_TrMRF]	2.22 kcal/mol
SAGGPPIKKIEITKIHPGKGIIQVSIKLPGDGHPIMVRAEIDDPEPGKIKIEIQDPNNGQPQEITIKFSAGG [r13_337_TrROS]	1.23 kcal/mol
SAGGSAGGSAGGSPVRVKLKFKKKFTVLLPLTDEDDEILDVEKEYTVEITLEVTLPPDLSAGGSAGGSAGGS [r4_326_TrMRF]	3.26 kcal/mol
